Assayed target: RyR1-WT (Oryctolagus cuniculus, UniProt P11716)
Construct: Each fragment was subcloned into a full length RyR1 construct in pcDNA3.1 vector; expressed in transfected cells; host or cells: HEK293 (also 293T/17) cells, pcDNA3.1
Sequence (P11716 whole entry, the tested form may be a part): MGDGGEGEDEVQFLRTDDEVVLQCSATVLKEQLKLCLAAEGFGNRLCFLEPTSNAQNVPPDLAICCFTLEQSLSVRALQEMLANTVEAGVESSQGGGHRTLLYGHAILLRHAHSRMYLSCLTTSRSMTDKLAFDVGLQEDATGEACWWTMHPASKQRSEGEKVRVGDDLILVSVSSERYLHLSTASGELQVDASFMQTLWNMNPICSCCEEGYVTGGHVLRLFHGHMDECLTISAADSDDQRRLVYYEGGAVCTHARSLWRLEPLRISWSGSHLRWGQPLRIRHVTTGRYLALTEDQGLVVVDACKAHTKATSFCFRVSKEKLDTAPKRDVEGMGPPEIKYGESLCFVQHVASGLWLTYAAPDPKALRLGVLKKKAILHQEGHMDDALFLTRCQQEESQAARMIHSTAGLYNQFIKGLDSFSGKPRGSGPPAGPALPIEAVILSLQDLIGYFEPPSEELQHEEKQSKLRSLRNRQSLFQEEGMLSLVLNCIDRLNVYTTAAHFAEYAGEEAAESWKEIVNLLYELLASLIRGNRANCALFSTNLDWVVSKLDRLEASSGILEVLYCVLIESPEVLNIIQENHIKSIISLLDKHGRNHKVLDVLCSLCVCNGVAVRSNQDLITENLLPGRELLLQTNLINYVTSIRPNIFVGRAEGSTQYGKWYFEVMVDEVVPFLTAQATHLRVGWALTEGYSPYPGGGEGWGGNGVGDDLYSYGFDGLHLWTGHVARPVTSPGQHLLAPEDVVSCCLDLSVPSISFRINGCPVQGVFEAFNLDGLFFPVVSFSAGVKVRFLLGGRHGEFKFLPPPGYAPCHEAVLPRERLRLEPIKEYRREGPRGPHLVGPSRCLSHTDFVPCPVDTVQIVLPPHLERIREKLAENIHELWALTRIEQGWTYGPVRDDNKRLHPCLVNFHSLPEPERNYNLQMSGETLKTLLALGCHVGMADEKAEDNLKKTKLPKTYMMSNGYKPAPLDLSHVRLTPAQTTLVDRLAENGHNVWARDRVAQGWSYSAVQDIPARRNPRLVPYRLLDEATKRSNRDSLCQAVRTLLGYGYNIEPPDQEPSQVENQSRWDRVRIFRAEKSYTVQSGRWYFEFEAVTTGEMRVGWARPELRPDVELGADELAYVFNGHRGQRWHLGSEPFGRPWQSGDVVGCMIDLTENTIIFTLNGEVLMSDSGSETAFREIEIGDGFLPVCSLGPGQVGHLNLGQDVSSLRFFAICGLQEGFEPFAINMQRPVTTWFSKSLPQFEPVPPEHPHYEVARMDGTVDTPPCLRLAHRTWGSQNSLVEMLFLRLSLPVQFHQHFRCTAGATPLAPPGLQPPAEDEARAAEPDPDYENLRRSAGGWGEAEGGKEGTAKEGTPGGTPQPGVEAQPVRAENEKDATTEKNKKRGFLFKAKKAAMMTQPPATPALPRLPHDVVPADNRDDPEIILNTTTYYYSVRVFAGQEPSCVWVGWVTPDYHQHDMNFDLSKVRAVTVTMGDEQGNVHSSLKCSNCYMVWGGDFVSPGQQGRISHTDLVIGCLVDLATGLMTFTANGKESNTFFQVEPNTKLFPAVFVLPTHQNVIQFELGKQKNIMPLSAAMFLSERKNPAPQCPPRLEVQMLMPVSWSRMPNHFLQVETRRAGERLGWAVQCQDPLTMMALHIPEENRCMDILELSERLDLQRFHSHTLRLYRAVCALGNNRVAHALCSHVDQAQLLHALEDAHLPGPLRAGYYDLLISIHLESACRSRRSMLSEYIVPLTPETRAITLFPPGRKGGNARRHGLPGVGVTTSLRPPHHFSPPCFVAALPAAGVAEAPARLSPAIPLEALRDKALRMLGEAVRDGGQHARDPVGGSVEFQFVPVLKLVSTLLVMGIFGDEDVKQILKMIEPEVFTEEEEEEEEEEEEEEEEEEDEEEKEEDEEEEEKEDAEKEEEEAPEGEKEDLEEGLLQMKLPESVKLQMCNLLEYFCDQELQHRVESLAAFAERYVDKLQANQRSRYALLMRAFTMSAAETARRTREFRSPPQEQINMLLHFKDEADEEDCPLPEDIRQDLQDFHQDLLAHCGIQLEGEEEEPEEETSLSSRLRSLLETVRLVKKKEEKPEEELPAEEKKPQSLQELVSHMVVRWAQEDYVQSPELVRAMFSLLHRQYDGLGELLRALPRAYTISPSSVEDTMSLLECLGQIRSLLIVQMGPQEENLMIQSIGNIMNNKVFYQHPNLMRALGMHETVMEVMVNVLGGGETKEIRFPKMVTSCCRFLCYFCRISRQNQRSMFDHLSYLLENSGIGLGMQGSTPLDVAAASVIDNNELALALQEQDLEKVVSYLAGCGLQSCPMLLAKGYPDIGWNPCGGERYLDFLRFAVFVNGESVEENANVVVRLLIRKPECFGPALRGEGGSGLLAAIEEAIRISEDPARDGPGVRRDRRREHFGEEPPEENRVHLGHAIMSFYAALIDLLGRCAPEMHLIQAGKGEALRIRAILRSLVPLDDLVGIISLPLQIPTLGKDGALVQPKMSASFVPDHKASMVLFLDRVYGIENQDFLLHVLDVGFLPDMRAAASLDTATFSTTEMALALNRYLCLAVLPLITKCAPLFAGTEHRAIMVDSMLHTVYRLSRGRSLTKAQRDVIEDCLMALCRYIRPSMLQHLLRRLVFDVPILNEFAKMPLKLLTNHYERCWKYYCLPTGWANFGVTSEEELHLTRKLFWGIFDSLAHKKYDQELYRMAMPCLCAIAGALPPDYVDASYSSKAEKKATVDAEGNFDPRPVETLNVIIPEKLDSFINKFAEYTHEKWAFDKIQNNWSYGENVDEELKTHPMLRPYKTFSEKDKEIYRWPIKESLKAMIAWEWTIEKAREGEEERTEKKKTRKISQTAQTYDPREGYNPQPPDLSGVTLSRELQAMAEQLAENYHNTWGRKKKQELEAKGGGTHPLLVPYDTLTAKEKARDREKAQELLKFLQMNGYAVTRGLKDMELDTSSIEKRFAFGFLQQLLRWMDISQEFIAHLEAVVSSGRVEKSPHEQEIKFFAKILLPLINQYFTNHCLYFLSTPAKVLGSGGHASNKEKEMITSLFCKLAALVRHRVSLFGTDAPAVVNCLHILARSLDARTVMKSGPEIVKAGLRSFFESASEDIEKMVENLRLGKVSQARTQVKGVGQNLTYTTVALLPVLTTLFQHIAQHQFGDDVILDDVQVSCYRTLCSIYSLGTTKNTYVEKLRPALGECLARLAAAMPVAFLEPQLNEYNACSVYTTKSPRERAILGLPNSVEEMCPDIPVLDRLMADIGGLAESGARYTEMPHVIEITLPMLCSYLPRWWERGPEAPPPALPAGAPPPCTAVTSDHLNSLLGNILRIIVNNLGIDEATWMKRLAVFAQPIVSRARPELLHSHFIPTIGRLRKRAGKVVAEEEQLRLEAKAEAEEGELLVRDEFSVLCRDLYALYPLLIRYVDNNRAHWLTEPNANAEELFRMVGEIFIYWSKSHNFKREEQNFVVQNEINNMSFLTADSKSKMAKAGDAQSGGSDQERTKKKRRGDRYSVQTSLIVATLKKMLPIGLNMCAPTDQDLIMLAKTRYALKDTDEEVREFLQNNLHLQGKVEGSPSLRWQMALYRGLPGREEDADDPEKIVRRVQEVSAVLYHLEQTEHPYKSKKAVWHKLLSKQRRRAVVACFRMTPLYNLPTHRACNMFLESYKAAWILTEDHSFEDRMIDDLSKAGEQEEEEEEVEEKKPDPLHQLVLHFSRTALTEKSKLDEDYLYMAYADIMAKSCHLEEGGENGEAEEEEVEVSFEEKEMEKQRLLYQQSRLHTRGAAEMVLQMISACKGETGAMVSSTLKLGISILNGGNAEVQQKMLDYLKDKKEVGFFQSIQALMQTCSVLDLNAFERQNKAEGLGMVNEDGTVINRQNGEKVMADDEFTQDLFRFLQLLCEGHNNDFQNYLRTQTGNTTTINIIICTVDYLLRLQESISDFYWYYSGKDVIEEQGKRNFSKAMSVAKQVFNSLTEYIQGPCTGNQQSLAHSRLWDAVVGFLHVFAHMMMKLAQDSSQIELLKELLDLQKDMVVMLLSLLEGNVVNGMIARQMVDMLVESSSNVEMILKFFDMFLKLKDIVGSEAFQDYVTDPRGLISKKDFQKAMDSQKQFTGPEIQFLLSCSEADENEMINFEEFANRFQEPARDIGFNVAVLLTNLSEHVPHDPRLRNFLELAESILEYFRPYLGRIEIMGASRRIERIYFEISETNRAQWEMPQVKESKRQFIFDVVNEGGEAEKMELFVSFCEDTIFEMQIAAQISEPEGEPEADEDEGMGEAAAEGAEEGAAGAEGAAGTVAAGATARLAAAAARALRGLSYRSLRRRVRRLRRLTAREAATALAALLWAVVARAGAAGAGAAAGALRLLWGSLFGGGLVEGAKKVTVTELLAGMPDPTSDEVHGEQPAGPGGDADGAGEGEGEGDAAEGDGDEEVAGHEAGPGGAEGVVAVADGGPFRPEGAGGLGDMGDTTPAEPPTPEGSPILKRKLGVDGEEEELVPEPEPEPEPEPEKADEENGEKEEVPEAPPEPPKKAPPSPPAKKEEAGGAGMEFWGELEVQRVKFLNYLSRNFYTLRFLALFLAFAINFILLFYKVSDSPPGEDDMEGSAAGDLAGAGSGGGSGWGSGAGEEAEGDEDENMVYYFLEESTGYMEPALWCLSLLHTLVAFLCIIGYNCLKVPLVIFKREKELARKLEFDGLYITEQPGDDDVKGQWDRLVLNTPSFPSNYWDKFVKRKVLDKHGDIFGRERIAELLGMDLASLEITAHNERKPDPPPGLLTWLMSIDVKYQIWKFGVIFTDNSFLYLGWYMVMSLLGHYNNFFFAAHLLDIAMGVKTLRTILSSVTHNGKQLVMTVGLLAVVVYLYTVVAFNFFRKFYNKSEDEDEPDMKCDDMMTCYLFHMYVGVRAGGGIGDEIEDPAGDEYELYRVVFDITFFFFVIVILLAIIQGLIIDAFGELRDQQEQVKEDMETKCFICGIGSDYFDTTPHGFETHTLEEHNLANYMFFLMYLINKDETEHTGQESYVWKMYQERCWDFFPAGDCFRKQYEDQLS
Measurement notes: 3H-S107 binding, recombinant RyR1 HEK293 microsomes treated with PKA and H2O2
Design: species or system rabbit
Test parameters: third section of TABLE 5, ADP in place of ATP

# Compound, Kd (µM)
rows = [
    ("COc1ccc2c(c1)CN(C)CCS2 [Compound S107]", 0.188),
]

---

Assayed target: purified RyR1 (Oryctolagus cuniculus, UniProt P11716)
Construct: RyR1 was purified from rabbit skeletal muscle; from tissue
Measurement notes: 3H-S107 binding to purified RyR1 in absence and presence of 10 mM ATP
Set-up: species or system rabbit
Test parameters: 10 mM ATP
pKd: −log10 of the molar value.
Assay metric: pKd

# Compound smiles, Experimental value
data = [
    ("COc1ccc2c(c1)CN(C)CCS2", 6.82),
]

Source: patent US20230386615A1
